# Tested on: Neuregulin-1 EGF-like domain
# Assay comment: binders of neuregulin-1 EGF-like domain, primary screen, biochemical, small-molecule microarray, 635 nm fluorescence (AID 1081);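 note: binding of the protein to compounds printed on small-molecule microarray slides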
# Condition info: small-molecule microarray binding, higher = more signal
Value type: composite z-score
# output: bare number, no unit

- Compound: "COCCOC(=O)N1C(=O)[C@@]2(c3cc(C#CCCO)ccc31)[C@H](c1ccccc1OCCO)N1[C@H](c3ccccc3)[C@H](c3ccccc3)OC(=O)[C@H]1[C@@H]2C(=O)NC[C@H](O)c1ccccc1"
  Value type: "composite z-score"
  Value observed: 1.06
- Compound: "COC(=O)C(CC#Cc1ccc2c(c1)[C@]1(C(=O)N2)[C@H](C(N)=O)[C@H]2C(=O)O[C@H](c3ccccc3)[C@H](c3ccccc3)N2[C@@H]1c1ccc(O)cc1)C(=O)OC"
  Value type: "composite z-score"
  Value observed: 0.699

For record CC(=O)OC(C/C=C\B1OC(C)(C)C(C)(C)O1)c1ccccc1 (stereo not drawn) the listed composite z-score is -0.679

###

# Assay comment: S. cerevisiae growth modulation with rapamycin, primary screen, strain BY4716, OD600, 96 h (AID 1091); note: test concentration not given here
# Condition info: higher = more signal, called active from +8 up or from −8 down
The entries below are paired with their reported z-score.
Lab note: jot down the number only; don't add units.

- Compound: "C=CCC(OC(C)=O)[C@@H]1[C@@H](N(Cc2ccc(-c3cccc(C(F)(F)F)c3)o2)C(=O)c2ccc(-c3ccccc3)cc2)c2cc(OCCCO)ccc2N1C(=O)Cc1ccc(OC)cc1 (stereo partly drawn)"
  z-score: -0.82
- Compound: "C[C@@H](OCc1ccccc1)C1NC(=O)[C@@]23C(=O)N[C@@H](Cc4ccccc4)C2[C@H](C)[C@@]2(C)O[C@H]2C3/C=C/C/C=C\\CNC(=O)[C@@H]2CCCN2C1=O (stereo partly drawn)"
  z-score: -0.266

Continue with the next compound.
Lab note: CC(C)(C)OC(=O)CC[C@@]12N=C(c3ccc(OCCCO)cc3)O[C@@H]1c1ccccc1N(Cc1ccccc1)C2=O gave z-score of 3.98

###

Below, each entry is listed alongside its reported composite z-score.
# Assay comment: small-molecule microarray binders of probe aLefty2, primary screen, biochemical, biotinylated probe, 635/667 nm fluorescence (AID 1094);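 note: score merges spot fluorescence near 667 nm with spot signal-to-noise ratio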
# Condition info: higher = more signal
No unit in the answer, please; the number alone is enough.

Consider the reported composite z-score for these molecules:
- Molecule: "C=CCC(OC(C)=O)[C@@H]1[C@@H](N(Cc2ccc(-c3ccccc3)cc2)C(=O)c2ccc(-c3ccccc3)cc2)c2cc(OCCCO)ccc2N1C(=O)c1ccc(-c2ccccc2)cc1 (stereo not given in full)"
  composite z-score: 0.0525
- Molecule: "C=CCC1(CC=C)C[C@H]2CO[C@H](c3ccc(OC)cc3)N2C1=O"
  composite z-score: 0.109
- Molecule: "COc1ccc(CCNC(=O)[C@@]2(Sc3ccc(C)cc3)CC(=O)N(Cc3ccccc3)[C@@H]2c2ccc(CO)cc2I)cc1"
  composite z-score: -0.337
- Molecule: "Cc1ccc(S[C@]2(C(=O)NCC(C)C)CC(=O)N(C(C)C)[C@@H]2c2ccc(CO)cc2)cc1"
  composite z-score: -0.0193
- Molecule: "COCCCN1C(=O)[C@@]2(Cc3ccccc31)c1ccccc1C(=O)N(Cc1ccccc1Cl)[C@H]2c1ccc(CO)cc1"
  composite z-score: -0.226
- Molecule: "[N-]=[N+]=Nc1ccccc1[C@H]1OC(c2ccc(OCCCO)cc2)=N[C@@]1(Cc1ccccc1)C(N)=O"
  composite z-score: 0.789
- Molecule: "CCCNC(=O)[C@@]1(Sc2ccc(C)cc2)CC(=O)N(Cc2cc(C(F)(F)F)cc(C(F)(F)F)c2)[C@@H]1c1ccc(CO)cc1I"
  composite z-score: 0.024
- Molecule: "COc1ccc([Si](C)(C)[C@@H]2[C@@H](CC(=O)N3CCC[C@H]3CO)O[C@]3(C(=O)N(Cc4ccc(I)cc4)c4ccccc43)[C@H]2C)cc1"
  composite z-score: 0.0662
- Molecule: "C[N+](C)(C)CCCC[C@@H]1NC(=O)[C@@H]2C[C@H](C(=O)NCCCCCNC(=O)CS)[C@H](c3ccc(O)cc3)N2C1=O"
  composite z-score: -0.188
- Molecule: "CC(C)CNC(=O)[C@@H]1c2ccccc2C(=O)N(Cc2ccc(OC(F)(F)F)cc2)[C@H]1c1ccc(CO)cc1"
  composite z-score: -0.0329

GET /value?item= CC1CC/C=C\[C@H]2OC34C=CCN(C(C)C)C(=O)[C@H]3N(C(CO)C(C)C)C(=O)[C@@H]4C2C(=O)O1 (stereo not given in full) &field=composite z-score returns -0.0229

Given item CC(C)C(=C=CC[C@@H](O)c1ccc(CO)o1)CCO , the value recorded as its composite z-score is -0.237

Note to self: composite z-score recorded for CCOC(=O)C[C@H]1[C@H](OC(=O)c2ccc(-c3ccccc3)cc2)[C@@H](NC(=O)C2CCCCC2)c2cc(OCCCO)ccc2N1C(=O)c1ccc2ccccc2n1 was 0.0366

Looking up O=C(N1CCCCC1)[C@@]1(Cc2ccccc2)N=C(c2ccc(OCCCO)cc2)O[C@H]1c1ccccc1 , I found its composite z-score recorded as 0.429

Please fill in: composite z-score reported for C=C(COC)/C(=C/C[C@H](OC(C)=O)c1cccc(OCCO)c1)c1cc(C(=O)OC)ccc1OC = 0.0056

###

z-score overview
# Assay comment: splicing luciferase reporter signal modulators, primary screen, spliceosome inhibition project, cell-based, HEK293, splice +/- reporter (AID 1101);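 note: HEK293 cells carrying a splicing-competent luciferase reporter gene; test concentration not given here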
# Condition info: luminescence, 24 h, higher = more signal, called active from +8 up or from −8 down
The source made the active and inactive calls.

// below: answered molecules
- Record smiles: "C=CC[C@]1(C(=O)N2CCCCC2)COC(c2ccc(OCCCO)cc2)=N1"
  z-score: "0.682 (inactive)"
- Record smiles: "COC(=O)C(CC#Cc1ccc2c(c1)[C@]1(C(=O)N2)[C@H](C(=O)O)[C@H]2C(=O)O[C@H](c3ccccc3)[C@H](c3ccccc3)N2[C@@H]1c1ccc(OCCO)cc1)C(=O)OC"
  z-score: "-1.31 (inactive)"

Lookup result for COCCOC(=O)N1C(=O)[C@@]2(c3cc(C#CCNC(N)=O)ccc31)[C@H](c1ccccc1OCCO)N1[C@H](c3ccccc3)[C@H](c3ccccc3)OC(=O)[C@H]1[C@@H]2C(=O)Nc1nc2ccccc2s1 ; measured z-score: -0.349 (inactive)

###

# Assay comment: small-molecule microarray binders of probe aShh, primary screen, biochemical, biotinylated probe, 635/667 nm fluorescence (AID 1114);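 note: probe is biotin-labelled aShh protein from a stem cell growth factor screen; measures binding of labelled protein to compounds printed on the slide; score merges feature fluorescence at 667 nm with signal-to-noise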
# Condition info: higher = more signal
Each item that follows carries a reported composite z-score.
Enter the number alone.

Field: example entries. Status: answers known.
- Compound: "CCOC(=O)C[C@H]1[C@H](OC(=O)Cc2ccc3c(c2)OCO3)[C@@H](NC(=O)c2ccc3ccccc3c2)c2cc(OCCCO)ccc2N1C(=O)c1ccc2ccccc2n1"
  composite z-score: -0.0769
- Compound: "COCCOC(=O)N1C(=O)[C@@]2(c3cc(C#CCNC(N)=O)ccc31)[C@H](C(=O)NC[C@H](O)c1ccccc1)[C@H]1C(=O)O[C@H](c3ccccc3)[C@H](c3ccccc3)N1[C@@H]2c1ccc(O)cc1"
  composite z-score: -0.152
- Compound: "CC(C)C[C@@H]1NC(=O)[C@@]23C(=O)N[C@@H](Cc4ccccc4)C2[C@H](C)[C@@]2(C)O[C@H]2C3/C=C/CC/C=C/CNC(=O)[C@@H](C)NC1=O (some centres undefined)"
  composite z-score: -0.229
- Compound: "COc1ccc([Si](C)(C)[C@H]2[C@H](CCO)O[C@@]3(C(=O)N(Cc4ccc(N5C(=O)c6cccc7cccc5c67)cc4)c4ccccc43)[C@@H]2C)cc1"
  composite z-score: -0.138
- Compound: "[N-]=[N+]=Nc1ccccc1[C@H]1OC(c2ccc(OCCCO)cc2)=N[C@@]1(Cc1ccccc1)C(N)=O"
  composite z-score: 1.03
- Compound: "Cc1ccc(S[C@]2(C(=O)NCCN3CCOCC3)CC(=O)N(Cc3cc(C(F)(F)F)cc(C(F)(F)F)c3)[C@@H]2c2ccc(CO)cc2)cc1"
  composite z-score: -0.153

Item: C=CC[C@@]1(C(=O)NCc2ccccc2)N=C(c2ccc(OCCCO)cc2)O[C@@H]1c1ccccc1 | composite z-score: 0.123

Memo: CC(C)C[C@@H]1NC(=O)[C@@H]2C[C@H](C(=O)NCCCCCNC(=O)CS)[C@H](c3cccc(OCCO)c3)N2C1=O , reported composite z-score: 0.242

Measured composite z-score of O=C1c2ccccc2[C@](Cc2ccccc2I)(C(=O)O)[C@H](c2ccc(CO)cc2)N1Cc1ccccc1Cl : -0.189

// composite z-score lookup, compound = COCCCNC(=O)[C@@]1(Cc2ccccc2)N=C(c2ccc(OCCCO)cc2)O[C@H]1c1ccccc1N=[N+]=[N-] , result: 1.02

Item: C=CCN1C(=O)[C@@]2(O[C@@H](CCn3cc(CCO)nn3)[C@H]([Si](C)(C)c3ccc(OC)cc3)[C@H]2C)c2cc(NC(=O)c3ccc(OC)cc3)ccc21 | composite z-score: -0.0035

The compound identified as COc1ccc([Si](C)(C)[C@@H]2[C@@H](CCn3cc(CCO)nn3)O[C@]3(C(=O)N(Cc4ccc(N5C(=O)c6cccc7cccc5c67)cc4)c4ccccc43)[C@H]2C)cc1 registered its composite z-score at 0.112

Record summary for C=C1C=C(Br)C2(OCCCO2)[C@H]2OC12 (some centres undefined) : reported composite z-score = 0.0684

Summary for this compound, C=CC[C@]1(C(=O)N2CCCCC2)COC(c2ccc(OCCCO)cc2)=N1 : composite z-score is -0.138

Numbers sourced from PubChem BioAssay.
